# assayed system: full length recombinant Pim-2 (Homo sapiens (Human), UniProt Q9P1W9)
# Sequence (Q9P1W9 whole entry): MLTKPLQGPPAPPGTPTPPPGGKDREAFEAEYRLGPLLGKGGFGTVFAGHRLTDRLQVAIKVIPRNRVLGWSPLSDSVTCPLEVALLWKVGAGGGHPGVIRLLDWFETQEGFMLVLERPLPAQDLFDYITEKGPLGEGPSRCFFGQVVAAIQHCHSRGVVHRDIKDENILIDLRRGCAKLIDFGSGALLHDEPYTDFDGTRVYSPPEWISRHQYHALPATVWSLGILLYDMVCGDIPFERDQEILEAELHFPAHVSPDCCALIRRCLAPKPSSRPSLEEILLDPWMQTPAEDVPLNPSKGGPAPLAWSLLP
# test protocol: Pim enzyme assay (HTRF, phosphorylation of biotinylated-BAD (S112) peptide), Pim-2
# Type: biochemical
# test settings: Pim-2 enzyme assay; read-out: Pim2_IC50

{"compound": "CC(C)Cn1cc(-c2c[nH]c3ccc(-c4nnc(N)o4)cc23)cn1 [Example 80]", "IC50 (nM)": 78}
{"compound": "Nc1nnc(-c2ccc3[nH]cc(-c4cncc(-c5ccccc5)n4)c3c2)o1 [Example 115]", "IC50 (nM)": 14}
{"compound": "Nc1nnc(-c2ccc3[nH]cc(-c4cccc(N5CCCC5)n4)c3c2)s1 [Example 176]", "IC50 (nM)": 104}
{"compound": "CC(C)Nc1nnc(-c2ccc3[nH]cc(-c4ncc(F)c(C5CC5)n4)c3c2)o1 [Example 262]", "IC50 (nM)": 2.77}
{"compound": "Nc1nnc(-c2ccc3[nH]cc(-c4cccc(N5CCCC5=O)n4)c3c2)s1 [Example 166]", "IC50 (nM)": 38.3}
{"compound": "Fc1ccccc1-c1c[nH]c2ccc(-c3nnc(NCc4cccc5[nH]ccc45)s3)cc12 [Example 143]", "IC50 (nM)": 3020}
{"compound": "Nc1nnc(-c2ccc3[nH]cc(-c4cncc(O[C@@H]5CCCNC5)n4)c3c2)o1 [Example 99]", "IC50 (nM)": 12.9}
{"compound": "CC1(C)COCCN1c1nnc(-c2ccc3[nH]cc(-c4cncc(C5CC5)n4)c3c2)o1 [Example 253]", "IC50 (nM)": 141}
{"compound": "c1cc(C2CC2)nc(-c2c[nH]c3ccc(-c4nnc(NC5CC5)o4)cc23)n1 [Example 257]", "IC50 (nM)": 1.41}
{"compound": "Nc1nnc(-c2ccc3[nH]cc(-c4cncc(OC5CCCC5)n4)c3c2)s1 [Example 160]", "IC50 (nM)": 24.6}
{"compound": "Nc1nnc(-c2ccc3[nH]cc(-c4cnc(N5CCOCC5)cn4)c3c2)s1 [Example 192]", "IC50 (nM)": 2400}
{"compound": "CC(C)Cc1nnc(-c2ccc3[nH]cc(-c4cncc(C5CC5)n4)c3c2)o1 [Example 265]", "IC50 (nM)": 51}
{"compound": "CS(=O)(=O)c1nnc(-c2ccc3[nH]cc(-c4cccc(N5CCOCC5)n4)c3c2)s1 [Example 215]", "IC50 (nM)": 8780}
{"compound": "CNc1nnc(-c2ccc3[nH]cc(-c4cccnc4)c3c2)s1 [Example 220]", "IC50 (nM)": 1230}
{"compound": "CC(C)Oc1cccc(-c2c[nH]c3ccc(-c4nnc(N)o4)cc23)c1 [Example 85]", "IC50 (nM)": 385}
{"compound": "CNc1nnc(-c2ccc3[nH]cc(-c4cccc(-n5ccnc5C)n4)c3c2)s1 [Example 234]", "IC50 (nM)": 123}
{"compound": "Nc1nnc(-c2ccc3[nH]cc(-c4cncc(-c5ccc(F)cc5)n4)c3c2)o1 [Example 7]", "IC50 (nM)": 42.5}
